- System: Staphylococcus aureus
- assay_name: Antibacterial activity against methicillin-susceptible Staphylococcus aureus 505 by broth macrodilution method
- Format: functional
measured_quantity: MIC (µg/mL)
Provide only the numeric value, understood in µg/mL.

compound="COc1cc(Cc2cnc(N)nc2N)cc(/C=C/C(=O)N2N=Cc3ccccc3C2c2cnc(N(C)C)nc2)c1OC (configuration not stated)" measured_quantity=MIC uom=µg/mL number=0.125
compound="COc1ncc(C2c3ccccc3C=NN2C(=O)/C=C/c2cc(Cc3cnc(N)nc3N)cc(OC)c2OC)cn1 (configuration not stated)" measured_quantity=MIC uom=µg/mL number=0.03
compound=COc1cc(Cc2cnc(N)nc2N)cc(OC)c1OC measured_quantity=MIC uom=µg/mL number=1
compound=CCC[C@@H]1C[C@@H](C(=O)N[C@@H]([C@H]2O[C@H](SC)[C@H](O)[C@@H](O)[C@H]2O)[C@H](C)Cl)N(C)C1 measured_quantity=MIC uom=µg/mL number=0.125
compound="COc1cc(Cc2cnc(N)nc2N)cc(/C=C/C(=O)N2N=Cc3ccccc3C2c2cnc(N3CCOCC3)nc2)c1OC (configuration not stated)" measured_quantity=MIC uom=µg/mL number=0.03

Task: Sample CN(C)c1ccc(O)c2c1C[C@H]1C[C@H]3[C@H](N(C)C)C(O)=C(C(N)=O)C(=O)[C@@]3(O)C(O)=C1C2=O — what was its MIC?
Result: 0.125

Task: Sample CO[C@H]1/C=C/O[C@@]2(C)Oc3c(C)c(O)c4c(O)c(c(/C=N/N5CCN(C)CC5)c(O)c4c3C2=O)NC(=O)/C(C)=C\C=C\[C@H](C)[C@H](O)[C@@H](C)[C@@H](O)[C@@H](C)[C@H](OC(C)=O)[C@@H]1C — what was its MIC?
Result: 0.03

###

Measured MIC90 values are reported for all entries that follow.
- Tested on: Staphylococcus aureus
- assay_name: Antibacterial activity against Tmp-resistant Staphylococcus aureus by agar dilution method
- Assay type: functional
Provide only the numeric value, understood in mg/L.

A selection of reference data follows.
compound="COc1cc(Cc2cnc(N)nc2N)cc(/C=C/C(=O)N2N=Cc3ccccc3C2c2cnc(N(C)C)nc2)c1OC (stereo not drawn)" assayed_system="Staphylococcus aureus" measured_quantity=MIC90 number=0.5
compound="COc1ncc(C2c3ccccc3C=NN2C(=O)/C=C/c2cc(Cc3cnc(N)nc3N)cc(OC)c2OC)cn1 (stereo not drawn)" assayed_system="Staphylococcus aureus" measured_quantity=MIC90 number=0.5

Proceed to the following item.
Task: Sample CN[C@H](CC(C)C)C(=O)N[C@H]1C(=O)N[C@@H](CC(N)=O)C(=O)N[C@H]2C(=O)N[C@H]3C(=O)N[C@H](C(=O)N[C@H](C(=O)O)c4cc(O)cc(O)c4-c4cc3ccc4O)[C@H](O)c3ccc(c(Cl)c3)Oc3cc2cc(c3O[C@@H]2O[C@H](CO)[C@@H](O)[C@H](O)[C@H]2O[C@H]2C[C@](C)(N)[C@H](O)[C@H](C)O2)Oc2ccc(cc2Cl)[C@H]1O — what was its MIC90?
Result: 4

###

- System: Staphylococcus aureus
- assay_name: Antibacterial activity against vancomycin-resistant Staphylococcus aureus VRS1 by broth macrodilution method
- Format: functional
measured_quantity: MIC (µg/mL)
Provide only the numeric value, understood in µg/mL.

A selection of reference data follows.
compound="COc1ncc(C2c3ccccc3C=NN2C(=O)/C=C/c2cc(Cc3cnc(N)nc3N)cc(OC)c2OC)cn1 (centres undefined)" measured_quantity=MIC number=1
compound="COc1cc(Cc2cnc(N)nc2N)cc(/C=C/C(=O)N2N=Cc3ccccc3C2c2cnc(N(C)C)nc2)c1OC (centres undefined)" measured_quantity=MIC number=0.5

Proceed to the following item.
Task: Tell me reported MIC for COc1cc(Cc2cnc(N)nc2N)cc(/C=C/C(=O)N2N=Cc3ccccc3C2c2cnc(N3CCOCC3)nc2)c1OC (centres undefined) , tested with Staphylococcus aureus.
Result: 1
